Experiment: NCI Yeast Anticancer Drug Screen. Data for the sgs1 mgt1 strain (AID 161);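 further: 0% = growth of cultures given vehicle only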
Conditions: S. cerevisiae sgs1 mgt1 strain, at 50.0 µM
Compounds without any hit were thinned out: in the full panel of roughly 79,000, 15% have a hit. Calls of active or inactive are those of the source. No stated cut-off is given here; in the data, active means growth inhibition above about 70%; inactive means the rest.
The reply should name one outcome from YES for active, NO for inactive

CCOC(=O)c1sc(C(=O)OCC)c(O)c1O    YES
CC(C)(C)NC(=O)NCc1cccc(Cl)c1    NO

Below: the item to evaluate.
For this compound, state the assay outcome: `C=C(C)CN(C#N)CC(=C)C`
NO

* * *

Task for the reader: assign each of the following compounds its reported growth inhibition.
Test: NCI Yeast Anticancer Drug Screen. Data for the rad50 strain (AID 155);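 further: 0% = growth of vehicle-only cultures of the same strain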
Conditions: S. cerevisiae rad50 strain growth inhibition; at 50.0 µM; hits give high values
Compounds without any hit were thinned out: in the full panel of roughly 79,000, 15% have a hit. Active and inactive are the calls of the source. No stated cut-off is given here; in the data, active means growth inhibition above about 70%; inactive means the rest.

COC(=O)c1c(C(=O)OC)c2ccccn2c1-c1cc(OC)c(Br)c(=O)o1    -0.2% (inactive)
NC1=NN(S(=O)(=O)c2ccc(Cl)cc2)CC1    -14.7% (inactive)
CCCC1C(CC)C(NC)C(C#N)(C#N)C1(C#N)C#N (stereo not drawn)    7.05% (inactive)
Cc1cc2c(=O)n(-c3ccc(F)cc3)c(C)nc2c(C(=O)O)c1C    -11.3% (inactive)
CN(C)c1ccccc1CCCCCBr    8.35% (inactive)
CC1c2c(ccc3ccccc23)CCC1CC1CCCc2ccc3ccccc3c21 (stereo not drawn)    45.6% (inactive)

I'm hoping you can list growth inhibition for every compound here, please.
1. CC(C)(O)c1c(F)c(F)c(F)c(F)c1F
2. CCOC1CCC(C(C)=O)C(C#N)(C#N)C1(C#N)C#N (stereo not drawn)
3. CN(C)C1CS(=O)(=O)C1c1ccccc1 (stereo not drawn)
4. c1ccc(CCCCCCc2ccccc2)cc1
5. CCCC1CCCCC1O (stereo not drawn)

["17.2% (inactive)", "38.1% (inactive)", "19.6% (inactive)", "-33.9% (inactive)", "-9.55% (inactive)"]

Hi team, please reply with growth inhibition for each item in this list.
1. NC(=O)c1ccncc1
2. O=C(N/N=C\c1ccc2c(c1)OCO2)c1ccc2c(c1)OCO2
3. CCC(C)C(C)(O)CC (stereo not drawn)
4. O=C(O)Cc1ccc(OCCCCCOc2ccc(CC(=O)O)cc2)cc1
5. O=C(O)c1oc(C(=O)O)c(C(=O)O)c1C(=O)O
6. O=C(Nc1ccccc1F)Oc1ccc(Cl)cc1Cl

["-5% (inactive)", "0.7% (inactive)", "-2.6% (inactive)", "6.05% (inactive)", "-15% (inactive)", "26.8% (inactive)"]

Would you mind listing growth inhibition for each of the following compounds?
1. Clc1cnnc(Cl)c1N/N=C/c1ccco1
2. CCCCCCCCCCCCCCCCNc1nc(=S)cc(C)[nH]1
3. CCCCC/C(C)=C\CBr
4. CC1=NOC2(C1)/C(=N/O)CCC/C2=N\O (stereo not drawn)
5. O=C1CN(CCCCl)CC(=O)N2Cc3ccccc3CN12
6. NS(=O)(=O)c1nc(S(=O)(=O)O)c2[nH]cnc2n1

1. 11.6% (inactive)
2. -10.2% (inactive)
3. -7.65% (inactive)
4. -3.65% (inactive)
5. -9.05% (inactive)
6. 3.7% (inactive)
